B1: library; numbered along this chain (parent)
chain: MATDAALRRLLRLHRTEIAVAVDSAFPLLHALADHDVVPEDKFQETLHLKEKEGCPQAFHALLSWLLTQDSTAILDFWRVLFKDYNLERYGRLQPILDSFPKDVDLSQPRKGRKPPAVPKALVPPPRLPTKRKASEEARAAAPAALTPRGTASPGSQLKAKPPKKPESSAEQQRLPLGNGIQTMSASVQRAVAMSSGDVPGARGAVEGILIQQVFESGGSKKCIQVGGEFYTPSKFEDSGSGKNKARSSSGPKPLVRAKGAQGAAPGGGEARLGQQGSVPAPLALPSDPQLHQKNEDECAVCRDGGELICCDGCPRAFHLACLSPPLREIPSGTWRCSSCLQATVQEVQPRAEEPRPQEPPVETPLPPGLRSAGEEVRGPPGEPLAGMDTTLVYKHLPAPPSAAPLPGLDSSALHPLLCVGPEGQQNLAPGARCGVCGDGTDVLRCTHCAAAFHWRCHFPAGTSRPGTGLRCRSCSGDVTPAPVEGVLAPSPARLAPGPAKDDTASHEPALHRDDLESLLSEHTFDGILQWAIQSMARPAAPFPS

# Variants of: B1
# Assay Info: AIRE transcriptional activation functional score (insulin promoter-GFP; nonsense median 0, synonymous median 1) (normalised score); higher = higher AIRE activity (more reporter activation)
# Condition Notes: with insulin promoter-GFP reporter in HEK293
Think of 1 as a floor: if AIRE transcriptional activation functional score stands on it or above, it is MET; beneath it, NOT MET.

As a guide, the following entries are already answered.
{"Variant Key": "S287D", "Classification": "NOT MET"}
{"Variant Key": "V20G", "Classification": "NOT MET"}

Prompt line: Does V226G have a reported AIRE transcriptional activation functional score of at least 1?
Response line: NOT MET

Prompt line: Does E383V have a reported AIRE transcriptional activation functional score of at least 1?
Response line: MET

Prompt line: Does R456D have a reported AIRE transcriptional activation functional score of at least 1?
Response line: NOT MET

Prompt line: Does G486Q have a reported AIRE transcriptional activation functional score of at least 1?
Response line: NOT MET

Prompt line: Does H30T have a reported AIRE transcriptional activation functional score of at least 1?
Response line: NOT MET
